Test system: bradykinin response of isolated guinea pig ileum
Assay: Anti-bradykinin activity on isolated guinea pig ileum
Settings: isolated guinea pig ileum; pD2 of bradykinin is 7.4; higher numbers indicate higher potency
MEASURED ATTRIBUTE: GPI: pA2 for bradykinin antagonist activity on isolated guinea pig ileum

INSERT INTO assay_data (molecule, test_value) VALUES
  ('N=C(N)NC(Cc1ccc2ccccc2c1)C(=O)Nc1ccc(CC(=O)O)cc1 (centres unmarked) [M32]', 4.8),
  ('CC1CN(C(=O)[C@H](Cc2ccc3ccccc3c2)NC(=N)CCCCCCCCCCCCC(=N)N[C@@H](Cc2ccc3ccccc3c2)C(=O)N2CC(C)OC(C)C2)CC(C)O1 (some centres unmarked)', 5.9),
  ('CC1(C)CC(NC(=O)C(Cc2csc3ccccc23)NC(=O)C=Cc2c(F)c(F)c(F)c(F)c2F)CC(C)(C)N1 (centres unmarked)', 7.0),
  ('O=C(O)Cc1ccc(NC(=O)C(Cc2ccc3ccccc3c2)NC(=NC2CCCCC2)NC2CCCCC2)cc1 (centres unmarked) [M30]', 5.4),
  ('N=C(N)Nc1cc(NC(=O)C(Cc2ccc3ccccc3c2)NC(=NC2CCCCC2)NC2CCCCC2)cc(C(=O)O)c1 (centres unmarked)', 4.8),
  ('CN(C(=O)C(Cc1ccc(OCc2c(Cl)cccc2Cl)cc1)NC(=O)C=Cc1ccccc1)C1CC(C)(C)NC(C)(C)C1 (centres unmarked)', 5.2),
  ('CC1(C)CC(NC(=O)C(NC(=O)C=Cc2c(F)c(F)c(F)c(F)c2F)C(C)(C)C)CC(C)(C)N1 (centres unmarked)', 5.2);

###

Test system: SCLC strain SHP-77
Assay: Colorimetric tetrazolium (MTT) assay for cell survival, SCLC strain SHP-77
Type: cell-based, human
Conditions: SCLC strain SHP-77 in vitro
# MTT: ED50 for killing of SCLC strain SHP-77 in vitro per entry
MEASURED ATTRIBUTE: MTT: ED50 for killing of SCLC strain SHP-77 in vitro (µM)

INSERT INTO measurements (compound, unit_of_measurement, test_value) VALUES
  ('COC(=O)C(Cc1ccc(OCc2ccccc2)cc1)N(Cc1ccc(N(C)C)cc1)C(=O)C=Cc1c(F)c(F)c(F)c(F)c1F (stereo not drawn) [M614]', 'µM', 9.1),
  ('CC1(C)CC(NC(=O)[C@@H](NC(=N)CCCCCCCCCCCCC(=N)N[C@H](C(=O)NC2CC(C)(C)NC(C)(C)C2)C2Cc3ccccc3C2)C2Cc3ccccc3C2)CC(C)(C)N1 [M280]', 'µM', 6),
  ('CC1(C)CC(NC(=O)C(Cc2csc3ccccc23)NC(=O)C=Cc2cccs2)CC(C)(C)N1 (stereo not drawn) [M476]', 'µM', 15);

###

Test system: bradykinin response of isolated guinea pig ileum
Test: Anti-bradykinin activity on isolated guinea pig ileum
Conditions: isolated guinea pig ileum; pD2 of bradykinin is 7.4; higher numbers indicate higher potency
# GPI: pA2 for bradykinin antagonist activity on isolated guinea pig ileum per entry
MEASURED ATTRIBUTE: GPI: pA2 for bradykinin antagonist activity on isolated guinea pig ileum

INSERT INTO results (compound, test_value) VALUES
  ('CC1(C)CC(NC(=O)C(Cc2ccc3ccccc3c2)NC(=O)CCSSCCC(=O)NC(Cc2ccc3ccccc3c2)C(=O)NC2CC(C)(C)NC(C)(C)C2)CC(C)(C)N1 (stereo not drawn) [M286]', 5.1),
  ('CC1(C)CC(NC(=O)[C@H](Cc2ccc(OCc3c(Cl)cccc3Cl)cc2)NC(=O)/C=C/c2c(F)c(F)c(F)c(F)c2F)CC(C)(C)N1 [M570, F5c-OC2Y-Atmp]', 5.6),
  ('CN(C)c1ccc(C=CC(=O)NC(Cc2ccc(OCc3c(Cl)cccc3Cl)cc2)C(=O)NC2CC(C)(C)NC(C)(C)C2)cc1 (stereo not drawn) [M582]', 5.4);
